Give measured pIC50 for each item. Keep answers brief.
system: HIV-1 wild-type (R8) virus; experiment: Viral KINetics in Green cells (VIKING) assay, HIV-1 replication in MT4-GFP reporter cells; type: cell-based; conditions: 10% normal human serum, MT4-GFP cells, HIV-1 wild-type (R8); read-out: Viking (10% NHS), IC50
Answers are plain numbers, as −log10 of the molar value.

[
  {
    "MOLECULE": "C#C[C@]1(COC(=O)OCc2ccccc2)O[C@@H](n2ccc3c(N)nc(Cl)nc32)C[C@@H]1O",
    "READOUT TYPE": "pIC50",
    "READOUT VALUE": 8.40
  }
]

*Q* Provide value of pIC50 for this record tested with HIV-1 wild-type (R8) virus: C#C[C@]1(COP(=O)(N[C@@H](C)C(=O)OC(C)C)Oc2ccc3ccccc3c2)O[C@@H](n2ccc3c(N)nc(Cl)nc32)C[C@@H]1O (some centres unmarked)
*A* 7.51

---

assay: Aqueous solubility in PBS, pH 7.4; format: physicochemical; conditions: phosphate buffered saline, pH 7.4, aqueous buffer, thermodynamic from solid, pH 7.4 phosphate buffered saline, 24 hours, amorphous or crystalline material; read-out: Aqu. Solubility
READOUT TYPE: solubility at 24 h

Sample records with solubility at 24 h:
[
  {
    "COMPOUND": "C#C[C@]1(CO)O[C@@H](n2ccc3c(N)nc(Cl)nc32)C[C@@H]1OC(=O)OCC(CC)CC [Example 78]",
    "solubility at 24 h": "2 µg/mL"
  },
  {
    "COMPOUND": "C#C[C@]1(CO)O[C@@H](n2ccc3c(N)nc(Cl)nc32)C[C@@H]1OC(=O)OCCC12CC3CC(CC(C3)C1)C2 [Example 36]",
    "solubility at 24 h": "< 1 µg/mL"
  },
  {
    "COMPOUND": "C#C[C@]1(COC(=O)OCCCCC)O[C@@H](n2ccc3c(N)nc(Cl)nc32)C[C@@H]1O [Example 14]",
    "solubility at 24 h": "113 µg/mL"
  }
]

// below: solubility at 24 h requested for another compound
*Q* Could you share which solubility at 24 h value was measured for C#C[C@]1(COC(=O)OCCCCC[C@@H]2SC[C@@H]3NC(=O)N[C@@H]32)O[C@@H](n2ccc3c(N)nc(Cl)nc32)C[C@@H]1OC(=O)OCC [Example 171] ?
*A* 1.9 µg/mL

---

test system: HIV-1 wild-type (R8) virus; test: Viral KINetics in Green cells (VIKING) assay, HIV-1 replication in MT4-GFP reporter cells; format: cell-based; conditions: Human immunodeficiency virus 1, 10% normal human serum, MT4-GFP cells, HIV-1 wild-type (R8); read-out: Viking (10% NHS), IC50
# Criterion met = IC50 below 10 nM (exclusive); Criterion not met = IC50 at/above 10 nM

[
  {
    "MOLECULE": "C#C[C@]1(COC(=O)OCc2ccn(C)c(=O)c2)O[C@@H](n2ccc3c(N)nc(Cl)nc32)C[C@@H]1OC(=O)OCc1ccn(C)c(=O)c1",
    "CATEGORY": "Criterion not met"
  },
  {
    "MOLECULE": "C#C[C@]1(COC(=O)OCCCCCCCCC)O[C@@H](n2ccc3c(N)nc(Cl)nc32)C[C@@H]1O",
    "CATEGORY": "Criterion met"
  },
  {
    "MOLECULE": "C#C[C@]1(COP(=O)(N[C@@H](C)C(=O)OC(C)C)Oc2ccc3ccccc3c2)O[C@@H](n2ccc3c(N)nc(Cl)nc32)C[C@@H]1O (stereo partly drawn)",
    "CATEGORY": "Criterion not met"
  },
  {
    "MOLECULE": "C#C[C@]1(CO)O[C@@H](n2ccc3c(N)nc(Cl)nc32)C[C@@H]1OC(=O)Cc1ccc(F)cc1",
    "CATEGORY": "Criterion met"
  },
  {
    "MOLECULE": "C#C[C@]1(CO)O[C@@H](n2ccc3c(N)nc(Cl)nc32)C[C@@H]1OC(=O)Cc1ccc(Br)cc1",
    "CATEGORY": "Criterion met"
  }
]

Note: attention shifts to another entry.
*Q* is_below(IC50, 10 nM) for `C#C[C@]1(COC(=O)OCCCCC[C@@H]2SC[C@@H]3NC(=O)N[C@@H]32)O[C@@H](n2ccc3c(N)nc(Cl)nc32)C[C@@H]1OC(=O)OCC` ?
*A* Criterion not met
